Origin of the recorded values: paper PMC10512030

Tested on: normal fibroblasts (dermal fibroblasts CCD25Sk)
ASSAY COMMENT: Cell viability neutral red uptake assay, fibroblasts
Assay type: cell-based, human
CONDITION SET: Homo sapiens, Fibroblast, 24 h, read-out: IC50 values ± SD in neutral red uptake assay
MEASURED METRIC: IC50

COc1ccc(-c2oc3cc(O)cc(O)c3c(=O)c2OC)cc1; > 50 µM

Note: attention shifts to another entry.
Given the entry O=c1cc(-c2ccc(O)c(O)c2)oc2cc(O)cc(O)c12 [luteolin, reference compound] , report its measured IC50.
> 50 µM

###

System: cervical adenocarcinoma HeLa cells
ASSAY COMMENT: Cell viability MTT assay, HeLa
Assay type: cell-based, human
CONDITION SET: Homo sapiens, HeLa, cancer cells (HeLa and Ishikawa), MTT and neutral red uptake assays, 24 and 48 h; read-out: IC50, viability of cancer cells
pIC50: −log10 of the molar value.
MEASURED METRIC: pIC50

Given the entry `COc1cc(O)c2c(c1)O[C@H](c1ccc(O)cc1)CC2=O` , report its measured pIC50.
< 4.30

###

Tested on: cervical adenocarcinoma HeLa cells
ASSAY COMMENT: Cell viability neutral red uptake assay, HeLa
Type: cell-based, human
CONDITION SET: 24 h, read-out: IC50 values ± SD in neutral red uptake assay
pIC50: −log10 of the molar value.
MEASURED METRIC: pIC50

COc1ccc(C2CC(=O)c3c(O)cc(OC)cc3O2)cc1 (stereo not drawn); < 4.30

Given the entry N.N.[Cl][Pt][Cl] [cisplatin, reference compound] , report its measured pIC50.
4.70

Given the entry `COc1ccc(-c2cc(=O)c3c(O)cc(OC)cc3o2)cc1` , report its measured pIC50.
< 4.30

###

Test system: cervical adenocarcinoma HeLa cells
ASSAY COMMENT: Cell viability neutral red uptake assay, HeLa
Type: cell-based, human
CONDITION SET: Homo sapiens, 48 h, read-out: IC50 values ± SD in neutral red uptake assay
Entries and their pIC50 values follow.
Answer as the number alone; pIC50 is minus log10 of concentration in mol/L.

Consider the following illustrative entries.
O=c1c(O)c(-c2ccc(O)c(O)c2)oc2cc(O)cc(O)c12 [quercetin]; 4.43
COc1ccc(-c2oc3cc(O)c(OC)c(O)c3c(=O)c2OC)cc1 [santin, 5,7-dihydroxy-3,6,4′-trimethoxyflavone]; 5.27
O=c1c(O)c(-c2ccc(O)cc2)oc2cc(O)cc(O)c12 [kaempferol]; 4.42
COc1cc2oc(-c3ccc(O)cc3)cc(=O)c2c(O)c1OC [cirsimaritin]; 4.86

Note: attention shifts to another entry.
Given the entry COc1ccc(-c2oc3cc(O)cc(O)c3c(=O)c2OC)cc1 [ermanin] , report its measured pIC50.
4.48

###

Entries and their IC50 values follow.
Tested on: endometrial adenocarcinoma Ishikawa cells
ASSAY COMMENT: Cell viability MTT assay, Ishikawa
Format: cell-based, human
CONDITION SET: 24 h, read-out: IC50 values ± SD in MTT assay

Consider the following illustrative entries.
COc1cc2oc(-c3ccc(O)cc3)cc(=O)c2c(O)c1OC; > 50 µM
COc1ccc(C2CC(=O)c3c(O)cc(OC)cc3O2)cc1 (stereo not shown); > 50 µM
COc1ccc(-c2cc(=O)c3c(O)cc(OC)cc3o2)cc1; 26.2 µM

Note: attention shifts to another entry.
Given the entry N.N.[Cl][Pt][Cl] [cisplatin, reference compound] , report its measured IC50.
> 50 µM
